For each entry below, report its Activity value.
# assay_method_text: Compound was tested for activation of Glutamate decarboxylase which is the ratio of Vmax in the presence of activators to the Vmax in the absence of activators at a concentration of 100 uM.
I'd appreciate a reply containing only the number, no unit.

Entry under test: `CCCC(CCC)C(=O)O` . Its Activity was 115

Entry under test: CC(CN)CC(=O)O (centres undefined) . Its Activity was 118

Entry under test: `C[C@@H](CN)CC(=O)O` . Its Activity was 128

Entry under test: CC(C)(C)C(CN)CC(=O)O (centres undefined) . Its Activity was 117
